Target: CYP-2B6 (Homo sapiens (Human))
Sequence (P20813 whole entry): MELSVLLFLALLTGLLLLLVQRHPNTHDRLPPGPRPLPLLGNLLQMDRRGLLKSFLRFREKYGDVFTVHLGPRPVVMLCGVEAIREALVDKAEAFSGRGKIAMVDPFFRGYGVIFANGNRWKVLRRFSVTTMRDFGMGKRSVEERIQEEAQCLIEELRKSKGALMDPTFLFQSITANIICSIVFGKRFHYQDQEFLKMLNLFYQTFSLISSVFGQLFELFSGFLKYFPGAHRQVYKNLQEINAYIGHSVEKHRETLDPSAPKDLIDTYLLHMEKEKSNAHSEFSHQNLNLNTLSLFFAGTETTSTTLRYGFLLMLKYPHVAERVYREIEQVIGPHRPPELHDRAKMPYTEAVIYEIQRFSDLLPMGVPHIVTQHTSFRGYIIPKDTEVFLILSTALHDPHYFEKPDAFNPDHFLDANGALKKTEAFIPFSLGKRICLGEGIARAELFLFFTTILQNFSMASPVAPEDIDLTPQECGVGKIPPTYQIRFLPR
Assay: CYP panel profile: P450 inhibition, CYP-2B6
Assay type: in vitro ADME
Conditions: human liver microsomes
Quantity measured: pIC50
Kindly note that pIC50 refers to -log10 of the concentration in mol/L and answer with the value alone.

Input: Endpoint output: pIC50 of O=C(C1CCCCC1)n1c(-c2cccc3ccccc23)nc2ccc(Cl)cc21 . Value?
Output: 4.51

Input: Endpoint output: pIC50 of O=C(c1ccc(F)c(F)c1)n1c(-c2cccc3ccccc23)nc2cc(Cl)ccc21 [Compound 530] . Value?
Output: 5.03

Input: Endpoint output: pIC50 of O=C(c1ccc(F)cc1)n1c(-c2cccc3ccccc23)nc2ccc(Cl)cc21 . Value?
Output: 4.94

---

Target: aryl hydrocarbon receptor (AhR) (Mus musculus (Mouse), UniProt P30561)
Sequence (P30561 10-805): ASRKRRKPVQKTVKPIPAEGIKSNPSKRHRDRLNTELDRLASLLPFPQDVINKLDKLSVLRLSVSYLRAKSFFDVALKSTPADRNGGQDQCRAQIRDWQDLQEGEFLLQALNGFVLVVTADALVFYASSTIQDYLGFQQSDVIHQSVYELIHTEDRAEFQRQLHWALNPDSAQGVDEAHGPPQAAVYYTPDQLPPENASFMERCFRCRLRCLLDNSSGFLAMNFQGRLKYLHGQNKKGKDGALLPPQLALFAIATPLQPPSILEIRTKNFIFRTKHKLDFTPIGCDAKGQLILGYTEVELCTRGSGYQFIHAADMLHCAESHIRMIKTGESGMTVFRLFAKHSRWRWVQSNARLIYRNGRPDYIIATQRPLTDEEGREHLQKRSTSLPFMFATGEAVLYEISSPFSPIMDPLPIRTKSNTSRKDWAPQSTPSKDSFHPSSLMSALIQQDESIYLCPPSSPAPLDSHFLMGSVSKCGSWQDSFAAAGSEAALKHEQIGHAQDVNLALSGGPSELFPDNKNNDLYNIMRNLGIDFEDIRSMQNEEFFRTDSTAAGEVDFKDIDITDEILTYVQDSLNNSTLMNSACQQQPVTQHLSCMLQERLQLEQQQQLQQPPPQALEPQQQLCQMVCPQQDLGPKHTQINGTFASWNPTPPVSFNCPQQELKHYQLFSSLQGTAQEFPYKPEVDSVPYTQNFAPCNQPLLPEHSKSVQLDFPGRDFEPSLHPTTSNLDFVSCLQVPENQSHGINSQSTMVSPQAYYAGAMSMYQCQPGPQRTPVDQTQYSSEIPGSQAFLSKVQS
Sequence (P53762 whole entry partner): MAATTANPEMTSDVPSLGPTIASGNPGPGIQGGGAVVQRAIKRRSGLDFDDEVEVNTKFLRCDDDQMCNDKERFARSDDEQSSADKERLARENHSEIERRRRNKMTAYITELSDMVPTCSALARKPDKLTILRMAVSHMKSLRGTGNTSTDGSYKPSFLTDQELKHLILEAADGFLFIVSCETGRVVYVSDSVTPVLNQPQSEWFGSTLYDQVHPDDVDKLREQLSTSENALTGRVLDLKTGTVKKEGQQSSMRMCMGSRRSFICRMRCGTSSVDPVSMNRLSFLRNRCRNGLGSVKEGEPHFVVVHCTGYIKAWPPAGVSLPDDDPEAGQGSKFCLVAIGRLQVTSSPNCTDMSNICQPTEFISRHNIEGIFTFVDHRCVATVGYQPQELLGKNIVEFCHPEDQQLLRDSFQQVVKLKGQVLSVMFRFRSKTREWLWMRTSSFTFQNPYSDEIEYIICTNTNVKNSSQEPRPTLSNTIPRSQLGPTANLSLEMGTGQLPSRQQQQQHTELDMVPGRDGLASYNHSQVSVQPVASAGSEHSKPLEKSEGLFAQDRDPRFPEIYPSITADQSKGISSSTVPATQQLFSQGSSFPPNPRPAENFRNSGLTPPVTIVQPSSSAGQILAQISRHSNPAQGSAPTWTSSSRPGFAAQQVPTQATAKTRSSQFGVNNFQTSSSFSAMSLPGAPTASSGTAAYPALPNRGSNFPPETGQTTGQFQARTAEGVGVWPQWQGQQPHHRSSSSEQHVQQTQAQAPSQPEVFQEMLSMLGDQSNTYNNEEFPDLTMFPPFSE
Assay: AhR ligand screening: AhRE-luciferase reporter in transfected Hepa1 cells
Assay type: cell-based
Details: luciferase expression at 100 nM test compound relative to 100 nM benchmark compound 11-cl-BBQ
Can you tell me Fold relative to benchmark @ 100 nM for the items I'm about to list?
Unit fold implied. Number only.

Input: Endpoint output: Fold relative to benchmark @ 100 nM of O=C(c1ccc(F)c(F)c1)n1c(-c2cccc3ccccc23)nc2cc(Cl)c(Cl)cc21 [Compound 692] . Value?
Output: 0.92

Input: Endpoint output: Fold relative to benchmark @ 100 nM of COC(=O)c1ccc2nc(-c3cccc4ccccc34)n(Cc3ccc(F)c(F)c3)c2c1 [Compound 1339] . Value?
Output: 0.03

Input: Endpoint output: Fold relative to benchmark @ 100 nM of COc1ccccc1S(=O)(=O)n1c(-c2cccc3ccccc23)nc2cc(C(=O)N3CCCCC3)ccc21 [Compound 1390] . Value?
Output: 0.03

Input: Endpoint output: Fold relative to benchmark @ 100 nM of Cc1ccc(C(=O)n2c(-c3cccc4ccccc34)nc3ccc(Cl)cc32)cc1 [Compound 698] . Value?
Output: 1

Input: Endpoint output: Fold relative to benchmark @ 100 nM of O=C(c1ccccc1)n1c(-c2cccc3ccccc23)nc2cc(OC(F)(F)F)ccc21 [Compound 703] . Value?
Output: 0.85

Input: Endpoint output: Fold relative to benchmark @ 100 nM of O=C(c1ccc2c(c1)OCCO2)n1c(-c2cccc3ccccc23)nc2cc(Cl)ccc21 [Compound 851] . Value?
Output: 0.84

Input: Endpoint output: Fold relative to benchmark @ 100 nM of Cc1ccc(S(=O)(=O)n2c(-c3cccc4ccccc34)nc3cc(Cl)ccc32)cc1 [Compound 527] . Value?
Output: 0.38

Input: Endpoint output: Fold relative to benchmark @ 100 nM of O=C(C1CCCCC1)n1c(-c2cccc3ccccc23)nc2ccc(Cl)cc21 [Compound 640] . Value?
Output: 1.21

Input: Endpoint output: Fold relative to benchmark @ 100 nM of CC(C)(C)c1cccc(-c2nc3cc(Cl)ccc3n2C(=O)c2ccccc2)c1 [Compound 790] . Value?
Output: 0.04

Input: Endpoint output: Fold relative to benchmark @ 100 nM of CCc1ccc(S(=O)(=O)n2c(-c3cccc4ccccc34)nc3ccc(Cl)cc32)cc1 [Compound 776] . Value?
Output: 0.6

Input: Endpoint output: Fold relative to benchmark @ 100 nM of O=C(c1ccc(F)c(F)c1)n1c(-c2ccc(Cl)c3ccccc23)nc2cc(Cl)ccc21 [Compound 869] . Value?
Output: 0.41

Input: Endpoint output: Fold relative to benchmark @ 100 nM of O=C(c1ccc(F)c(F)c1)n1c(-c2cccc(-c3ccccc3)c2)nc2cc(Cl)ccc21 [Compound 771] . Value?
Output: 0.04

Input: Endpoint output: Fold relative to benchmark @ 100 nM of O=c1c2cccc3cccc(c32)c2cc3ccc(Cl)cc3n12 [Compound 405] . Value?
Output: 0.78

Input: Endpoint output: Fold relative to benchmark @ 100 nM of O=C(c1ccc2c(c1)nc(-c1cccc3ccccc13)n2S(=O)(=O)c1ccc(Cl)cc1)N1CCCCC1 [Compound 1366] . Value?
Output: 0.03

Input: Endpoint output: Fold relative to benchmark @ 100 nM of O=C(c1ccccc1)n1c(-c2cccc3ccccc23)nc2cc(Br)ccc21 [Compound 691] . Value?
Output: 1

Input: Endpoint output: Fold relative to benchmark @ 100 nM of O=C(c1ccc2c(c1)nc(-c1cccc3ccccc13)n2S(=O)(=O)c1cccc(F)c1)N1CCOCC1 [Compound 1356] . Value?
Output: 0.03

Input: Endpoint output: Fold relative to benchmark @ 100 nM of O=C(c1ccccc1)n1c(-c2cccc3ccccc23)nc2cc(F)ccc21 [Compound 583] . Value?
Output: 0.33

Input: Endpoint output: Fold relative to benchmark @ 100 nM of COc1ccc(C(=O)n2c(-c3cccc4ccccc34)nc3cc(C)ccc32)cc1 [Compound 702] . Value?
Output: 0.04

Input: Endpoint output: Fold relative to benchmark @ 100 nM of O=C(c1ccc2nc(-c3cccc4ccccc34)n(S(=O)(=O)c3ccc(C(F)(F)F)cc3)c2c1)N1CCOCC1 [Compound 1370] . Value?
Output: 0.03

Input: Endpoint output: Fold relative to benchmark @ 100 nM of O=C(c1ccc(F)cc1F)n1c(-c2cccc3ccccc23)nc2cc(Cl)ccc21 [Compound 694] . Value?
Output: 1.23

Input: Endpoint output: Fold relative to benchmark @ 100 nM of O=S(=O)(c1ccc(C(F)(F)F)cc1)n1c(-c2cccc3ccccc23)nc2ccc(Cl)cc21 [Compound 782] . Value?
Output: 0.92

Input: Endpoint output: Fold relative to benchmark @ 100 nM of CN1CCN(C(=O)c2ccc3nc(-c4cccc5ccccc45)n(S(=O)(=O)c4cccc(F)c4)c3c2)CC1 [Compound 1393] . Value?
Output: 0.03

Input: Endpoint output: Fold relative to benchmark @ 100 nM of COc1ccc(C(=O)n2c(-c3cc4ccccc4s3)nc3ccc(Cl)cc32)cc1 [Compound 591] . Value?
Output: 0.13

Input: Endpoint output: Fold relative to benchmark @ 100 nM of COC(=O)c1ccc2c(c1)nc(-c1cccc3ccccc13)n2C(=O)c1ccc(F)c(F)c1 [Compound 848] . Value?
Output: 0.04

Input: Endpoint output: Fold relative to benchmark @ 100 nM of O=C(c1cccc2ccccc12)c1c[nH]c2ccc(Cl)cc12 [Compound 364] . Value?
Output: 0.05

Input: Endpoint output: Fold relative to benchmark @ 100 nM of O=C(c1ccc2nc(-c3cccc4ccccc34)n(S(=O)(=O)c3ccc4ccccc4c3)c2c1)N1CCCCC1 [Compound 1341] . Value?
Output: 0.03

Input: Endpoint output: Fold relative to benchmark @ 100 nM of O=C(c1cccc2ccccc12)n1ccc2cc(Cl)ccc21 [Compound 366] . Value?
Output: 0.03

Input: Endpoint output: Fold relative to benchmark @ 100 nM of COC(=O)c1ccc2nc(-c3cccc4ccccc34)n(S(=O)(=O)c3ccc(C#N)cc3)c2c1 [Compound 1362] . Value?
Output: 0.1

Input: Endpoint output: Fold relative to benchmark @ 100 nM of O=C(c1ccc(F)c(F)c1)n1c(-c2c3ccccc3cc3ccccc23)nc2ccc(Cl)cc21 [Compound 642] . Value?
Output: 0.11

Input: Endpoint output: Fold relative to benchmark @ 100 nM of O=C(c1ccc(F)c(F)c1)n1c(-c2cccc3ccccc23)nc2ccc(OC(F)(F)F)cc21 [Compound 700] . Value?
Output: 0.62

Input: Endpoint output: Fold relative to benchmark @ 100 nM of O=C(c1ccc2c(c1)nc(-c1cccc3ccccc13)n2S(=O)(=O)c1ccc2ccccc2c1)N1CCOCC1 [Compound 1363] . Value?
Output: 0.03

Input: Endpoint output: Fold relative to benchmark @ 100 nM of Cn1ncc2c(-c3nc4cc(Cl)ccc4n3C(=O)c3ccc(F)c(F)c3)cccc21 [Compound 860] . Value?
Output: 0.1

---

Experiment: In vivo PK study, intravenous and oral administration in male mice
Parameters: species or system mouse
Settings: mouse, IV 2 mg/Kg, plasma
Quantity measured: AUC(0-inf) (ng·h/mL)
Unit ng·h/mL implied. Number only.

Input: Endpoint output: AUC(0-inf) of Clc1ccc2[nH]c(-c3cccc4ccccc34)cc2c1 [Compound 893, 5-chloro-2-(naphthalen-1-yl)-1H-indole] . Value?
Output: 474

Input: Endpoint output: AUC(0-inf) of O=c1c2cccc3cccc(c32)c2nc3cc(Cl)ccc3n12 [Compound 362] . Value?
Output: 453

---

Molecular target: aryl hydrocarbon receptor (AhR) (Mus musculus (Mouse), UniProt P30561)
Assay: AhR ligand screening: AhRE-luciferase reporter in transfected Hepa1 cells
Format: cell-based
Conditions: fold change of luciferase expression at 100 nM test compound relative to vehicle (0.1% DMSO)
Quantity measured: Fold @ 100 nM

Input: Endpoint output: Fold @ 100 nM of O=C(c1ccc2nc(-c3cccc4ccccc34)n(S(=O)(=O)c3ccc4ccccc4c3)c2c1)N1CCOCC1 . Value?
Output: 1 fold

Input: Endpoint output: Fold @ 100 nM of CN(C)c1ccc(C(=O)n2c(-c3cccc4ccccc34)nc3cc(Cl)ccc32)cc1 . Value?
Output: 13 fold

Input: Endpoint output: Fold @ 100 nM of O=C(c1ccc(F)c(F)c1)n1c(-c2ccc(-c3ccccc3)cc2)nc2cc(Cl)ccc21 . Value?
Output: 1 fold

Input: Endpoint output: Fold @ 100 nM of O=C(c1cccc2ccccc12)C1CN(C(=O)c2ccccc2)c2ccc(Cl)cc21 (centres unmarked) . Value?
Output: 1 fold

Input: Endpoint output: Fold @ 100 nM of O=C(c1ccccc1)n1c(-c2cccc3c2CCCC3)nc2cc(Cl)ccc21 . Value?
Output: 2 fold

Input: Endpoint output: Fold @ 100 nM of O=C(c1cnc2ccccc2c1)n1c(-c2cccc3ccccc23)nc2cc(Cl)ccc21 . Value?
Output: 33 fold

Input: Endpoint output: Fold @ 100 nM of Clc1ccc2[nH]c(-c3cccc4ccccc34)cc2c1 . Value?
Output: 49 fold

Input: Endpoint output: Fold @ 100 nM of Clc1ccc2nc(-c3cccc4ccccc34)n(Cc3ccncc3)c2c1 . Value?
Output: 3 fold
